System: adenovirus type 6 (ADV6)
method.notes: Evaluation of anti-adenovirus activity: CRL-11516 cells infected with ADV6, anti-hexon staining, count of stained cells
Assay type: cell-based
condition.notes: Human mastadenovirus C, 48 h, CRL-11516 cells infected with ADV6, 48 hours culture, concentration reducing dark brown-stained cells by 50%; read-out: Anti-AdV activity EC50
reported.endpoint: EC50

CC(C)OC(=O)[C@H](C)N[P@@](=O)(OC[C@@H]1C=C[C@H](n2cnc3c(OC4CCC4)nc(N)nc32)C1)Oc1ccccc1 :: 0.01 to 0.1 µM
CC(C)OC(=O)[C@H](C)N[P@](=O)(OC[C@@H]1C=C[C@H](n2cnc3c(OC(C)C)nc(N)nc32)C1)Oc1ccccc1 :: 0.1 to 1 µM
COC(=O)[C@H](C)NP(=O)(OC[C@@H]1C=C[C@H](n2cnc3c(N)nc(N)nc32)C1)Oc1ccc(Br)cc1 (some centres unmarked) :: 0.1 to 1 µM
CCOc1nc(N)nc2c1ncn2[C@H]1C=C[C@@H](CO[P@](=O)(N[C@@H](C)C(=O)OC(C)C)Oc2ccccc2)C1 :: < 0.01 µM
CCOc1nc(N)nc2c1ncn2[C@H]1C=C[C@@H](CO[P@@](=O)(N[C@@H](C)C(=O)OC(C)C)Oc2ccccc2)C1 :: 0.1 to 1 µM
CC(C)OC(=O)[C@H](C)N[P@](=O)(OC[C@@H]1C=C[C@H](n2cnc3c(N(C)C)nc(N)nc32)C1)Oc1ccccc1 :: 0.1 to 1 µM
COC(=O)[C@H](C)NP(=O)(OC[C@@H]1C=C[C@H](n2cnc3c(OC)nc(N)nc32)C1)Oc1ccc(Br)cc1 (some centres unmarked) :: < 0.01 µM
COC(=O)[C@H](C)NP(=O)(OC[C@@H]1C=C[C@H](n2cnc3c(N(C)C)nc(N)nc32)C1)Oc1ccc(Br)cc1 (some centres unmarked) :: < 0.01 µM
CC(C)OC(=O)[C@H](C)N[P@@](=O)(OC[C@@H]1C=C[C@H](n2cnc3c(N(C)C)nc(N)nc32)C1)Oc1ccccc1 :: 0.01 to 0.1 µM
COCCOc1cccc(OP(=O)(N[C@@H](C)C(=O)OC(C)C)OC[C@@H]2C=C[C@H](n3cnc4c(OC)nc(N)nc43)C2)c1 (some centres unmarked) :: < 0.01 µM

Recorded EC50 for COC(=O)[C@H](C)NP(=O)(OC[C@@H]1C=C[C@H](n2cnc3c(Cl)nc(N)nc32)C1)Oc1ccccc1 (some centres unmarked) with adenovirus type 6 (ADV6), please?
0.01 to 0.1 µM
